Entries and their measured EC50 follow.
biological target: human CB1R (Homo sapiens); construct: host or cells: CHO cells; test: CB1R mediated modulation of cAMP synthesis; format: cell-based; conditions: CHO cells expressing human CB1R; inhibition of forskolin-stimulated cAMP synthesis; read-out: CB1 EC50

Recorded EC50, per entry:
[[record]]
querysmiles = "CC(C)(CO)c1cc(NC(=O)C(C)(C)S(=O)(=O)N2CCC2)on1"
recordedmeasurement = "> 20 µM"

[[record]]
querysmiles = "CC(C)(CO)c1cc(NC(=O)C(C)(C)S(=O)(=O)C2CCCC2)no1"
recordedmeasurement = "≥ 50 µM"

[[record]]
querysmiles = "CCOc1ccc(-c2nnc(NC(=O)C(C)(C)S(=O)(=O)C3CCOCC3)[nH]2)cc1"
recordedmeasurement = "> 50 µM"

[[record]]
querysmiles = "CC(C)(CO)c1cc(NC(=O)C2(S(=O)(=O)C3CCOCC3)CCC2)on1"
recordedmeasurement = "> 50 µM"


GET /value?item= "COCC(C)(C)c1cc(NC(=O)C(C)(C)S(=O)(=O)CC2CCOCC2)no1" &field=EC50 returns > 20 µM

For record "CC(C)(CO)c1cc(NC(=O)C(C)(C)S(=O)(=O)CCCC(F)(F)F)on1" the listed EC50 is > 20 µM

The reported EC50 of the compound "COc1ccc(-c2nnc(NC(=O)C(C)(C)S(=O)(=O)CC3(C)CCOCC3)[nH]2)cc1" was > 20 µM

----------
molecular target: human CB1R (Homo sapiens, UniProt P21554); construct: host or cells: CHO cells; assay: CB1R mediated modulation of cAMP synthesis; format: cell-based
Sequence (P21554 whole entry): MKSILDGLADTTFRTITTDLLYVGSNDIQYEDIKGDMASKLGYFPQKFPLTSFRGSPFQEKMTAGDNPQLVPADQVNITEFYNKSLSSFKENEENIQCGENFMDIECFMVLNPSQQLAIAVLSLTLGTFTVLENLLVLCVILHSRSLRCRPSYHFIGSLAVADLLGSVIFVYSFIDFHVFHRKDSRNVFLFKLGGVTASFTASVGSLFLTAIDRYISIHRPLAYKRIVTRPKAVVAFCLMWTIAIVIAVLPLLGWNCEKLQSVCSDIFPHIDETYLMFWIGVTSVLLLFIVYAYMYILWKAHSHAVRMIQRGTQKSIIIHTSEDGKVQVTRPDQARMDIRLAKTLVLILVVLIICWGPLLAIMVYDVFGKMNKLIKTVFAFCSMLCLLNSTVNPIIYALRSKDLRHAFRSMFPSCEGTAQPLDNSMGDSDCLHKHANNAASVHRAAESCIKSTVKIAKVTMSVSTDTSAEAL
pEC50: −log10 of the molar value.
outcomeMeasure: pEC50

[[record]]
querysmiles = "COc1ccc(-c2nnc(NC(=O)C(C)(C)S(=O)(=O)c3ccc(S(C)(=O)=O)cc3F)[nH]2)cc1"
outcomemeasure = "pEC50"
recordedmeasurement = "< 4.70"


Below: the item to evaluate.
Let me check: "COCC(C)(C)c1cc(NC(=O)C(C)(C)S(=O)(=O)C2CCCC2)on1" , system human CB1R (Homo sapiens, UniProt P21554), measured pEC50 is < 4.70

----------
Entries and their pEC50 values follow.
target: human CB1R (Homo sapiens, UniProt P21554); construct: host or cells: CHO cells; test: CB1R mediated modulation of cAMP synthesis; format: cell-based
pEC50: −log10 of the molar value.

Here are 5 molecules together with their reported answers.
[[record]]
querysmiles = "CC(C)(C(=O)Nc1cc(C2(CO)CCCCC2)no1)S(=O)(=O)C1CCOCC1"
assayedtarget = "human CB1R (Homo sapiens, UniProt P21554)"
recordedmeasurement = "< 4.70"

[[record]]
querysmiles = "CCOCC(C)(C)c1cc(NC(=O)C(C)(C)S(=O)(=O)C2CCOCC2)on1"
assayedtarget = "human CB1R (Homo sapiens, UniProt P21554)"
recordedmeasurement = "< 4.70"

[[record]]
querysmiles = "CO[C@H]1CC[C@@H](S(=O)(=O)C(C)(C)C(=O)Nc2cc(C(C)(C)CO)no2)CC1"
assayedtarget = "human CB1R (Homo sapiens, UniProt P21554)"
recordedmeasurement = "< 4.30"

[[record]]
querysmiles = "CC(C)(C(=O)Nc1nc(-c2ccc(O)cc2)n[nH]1)S(=O)(=O)C1CCCC1"
assayedtarget = "human CB1R (Homo sapiens, UniProt P21554)"
recordedmeasurement = "< 4.30"

[[record]]
querysmiles = "COCC(C)(C)c1cc(NC(=O)C(C)(C)S(=O)(=O)C2CCOCC2)on1"
assayedtarget = "human CB1R (Homo sapiens, UniProt P21554)"
recordedmeasurement = "< 4.70"


Noted pEC50 for "CC(C)(O)c1cc(NC(=O)C(C)(C)S(=O)(=O)CCCC(F)(F)F)on1" , tested on human CB1R (Homo sapiens, UniProt P21554): < 4.70

// assay human CB1R (Homo sapiens, UniProt P21554), entry "CC(C)(CO)c1nnc(NC(=O)C(C)(C)S(=O)(=O)C[C@H]2CCCCO2)s1" , pEC50 value = < 4.30
